All figures here come from patent US7718688B2.

test system: HT29: human colon cancer cell line; experiment: Proliferation IC50 assay, oxic/hypoxic, HT29; assay type: cell-based; settings: Homo sapiens, HT-29; Table 3; 4 h exposure under aerobic conditions
assay_metric: pIC50
The read-out pIC50 is expressed as -log10 of concentration in moles per litre.

Some compounds with recorded pIC50:
COc1ccc(/C=C/C(=O)N2CC(CCl)c3c2cc([N+](=O)[O-])c2cc(S(=O)(=O)NCCO)ccc32)cc1 (stereo not drawn)    5.32
COC(=O)c1ccc2c3c(cc([N+](=O)[O-])c2c1)N(C(=O)c1cc2cc(OCCN(C)C)ccc2[nH]1)CC3CCl (stereo not drawn)    6.49

// switching to the query compound
Prompt line: Tell me the measured pIC50 of CN(C)CCOc1ccc2[nH]c(C(=O)N3CC(CCl)c4c3cc([N+](=O)[O-])c3cc(C(=O)NCCO)ccc43)cc2c1 (stereo not drawn) , please.
Response line: 4.92

====

The following molecules are shown together with reported HCR (hypoxic cytotoxicity ratio) SKOV3 values.
test system: SKOV3: human ovarian carcinoma cell line; assay: Proliferation IC50 assay, oxic/hypoxic, SKOV3; format: cell-based; conditions: Table 3; IC50(aerobic)/IC10(hypoxic)
Answer using only a numeral; do not append any unit.

CN(C)CCOc1ccc2[nH]c(C(=O)N3CC(CCl)c4c3cc([N+](=O)[O-])c3ccc(C(N)=O)cc43)cc2c1 (stereo not shown)    34
CN(C)CCOc1ccc2[nH]c(C(=O)N3CC(CCl)c4c3cc([N+](=O)[O-])c3ccc(C#N)cc43)cc2c1 (stereo not shown)    1.5
CN(C)CCOc1ccc2[nH]c(C(=O)N3CC(CCl)c4c3cc([N+](=O)[O-])c3cc(S(=O)(=O)NCCO)ccc43)cc2c1 (stereo not shown)    250
COc1cc2cc(C(=O)N3CC(CCl)c4c3cc([N+](=O)[O-])c3cc(S(=O)(=O)NCCO)ccc43)[nH]c2c(OC)c1OC (stereo not shown)    5.8
CC(=O)c1cccc2c3c(cc([N+](=O)[O-])c12)N(C(=O)c1cc2cc(OCCN(C)C)ccc2[nH]1)CC3CCl (stereo not shown)    12
CN(C)CCOc1ccc2[nH]c(C(=O)N3CC(CCl)c4c3cc([N+](=O)[O-])c3c(C(N)=O)cccc43)cc2c1 (stereo not shown)    18

// switching to the query molecule
Prompt line: Tell me the measured HCR (hypoxic cytotoxicity ratio) SKOV3 of CN(C)CCNS(=O)(=O)c1ccc2c3c(cc([N+](=O)[O-])c2c1)N(C(=O)c1cc2cc(OCCN(C)C)ccc2[nH]1)CC3CCl (stereo not shown) , please.
Response line: 130

====

tested on: HT29: human colon cancer cell line; assay: Proliferation IC50 assay, oxic/hypoxic, HT29; type: cell-based; conditions: Homo sapiens, HT-29; Table 4; 4 h exposure under aerobic conditions
assay_metric: pIC50
The read-out pIC50 is expressed as -log10 of concentration in moles per litre.

CC(=O)c1ccc2c3c(cc(N)c2c1)N(C(=O)c1cc2cc(OCCN(C)C)ccc2[nH]1)CC3CCl (stereo not shown)    8.12
COC(=O)c1ccc2c3c(cc(N)c2c1)N(C(=O)c1cc2cc(OCCN(C)C)ccc2[nH]1)CC3CCl (stereo not shown)    8.07
COc1cc2cc(C(=O)N3CC(CCl)c4c3cc(N)c3cc(S(C)(=O)=O)ccc43)[nH]c2c(OC)c1OC (stereo not shown)    7.49
CN(C)CCOc1ccc2[nH]c(C(=O)N3CC(CCl)c4c3cc(N)c3cc(S(C)(=O)=O)ccc43)cc2c1 (stereo not shown)    7.96
CN(C)CCOc1ccc2[nH]c(C(=O)N3CC(CCl)c4c3cc(N)c3cc(C#N)ccc43)cc2c1 (stereo not shown)    7.77
CN(C)CCOc1ccc2[nH]c(C(=O)N3CC(CCl)c4c3cc(N)c3cc(S(N)(=O)=O)ccc43)cc2c1 (stereo not shown)    7.46

// switching to the query molecule
Prompt line: Tell me the measured pIC50 of CNS(=O)(=O)c1ccc2c3c(cc(N)c2c1)N(C(=O)c1cc2cc(OCCN(C)C)ccc2[nH]1)CC3CCl (stereo not shown) , please.
Response line: 7.62

====

assay: One-electron reduction potential E(1) by pulse radiolysis; type: physicochemical; conditions: determined by pulse radiolysis
The following molecules are shown together with reported E(1): one-electron reduction potential values.
# unit: mV | format: bare number

Some molecules with recorded E(1): one-electron reduction potential:
CN(C)CCOc1ccc2[nH]c(C(=O)N3CC(CCl)c4c3cc([N+](=O)[O-])c3cc(C#N)ccc43)cc2c1 (stereo not shown)    −385
CN(C)CCOc1ccc2[nH]c(C(=O)N3CC(CCl)c4c3cc([N+](=O)[O-])c3cccc([N+](=O)[O-])c43)cc2c1 (stereo not shown)    −477
CN(C)CCOc1ccc2[nH]c(C(=O)N3CC(CCl)c4c3cc([N+](=O)[O-])c3c([N+](=O)[O-])cccc43)cc2c1 (stereo not shown)    −467
CN(C)CCOc1ccc2[nH]c(C(=O)N3CC(CCl)c4c3cc([N+](=O)[O-])c3ccc(C(N)=O)cc43)cc2c1 (stereo not shown)    −447
CN(C)CCOc1ccc2[nH]c(C(=O)N3CC(CCl)c4c3cc([N+](=O)[O-])c3c(C(N)=O)cccc43)cc2c1 (stereo not shown)    −481

// switching to the query molecule
Prompt line: Tell me the measured E(1): one-electron reduction potential of CN(C)CCOc1ccc2[nH]c(C(=O)N3CC(CCl)c4c3cc([N+](=O)[O-])c3ccccc43)cc2c1 (stereo not shown) [Compound R2, reference compound] , please.
Response line: −512

====

The following compounds are shown together with reported Clonogenic C10 HT29 Oxic values.
tested on: HT29 clonogens; assay: Clonogenic assay (C10), oxic/hypoxic, HT29; type: cell-based, human; conditions: concentration to reduce HT29 clonogens to 10% of controls; 4 hr exposure under aerobic conditions

CN(C)CCOc1ccc2[nH]c(C(=O)N3CC(CCl)c4c3cc([N+](=O)[O-])c3cc(S(N)(=O)=O)ccc43)cc2c1 (stereo not shown) [Compound 26]    >42 µM
COc1cc2cc(C(=O)N3CC(CCl)c4c3cc([N+](=O)[O-])c3cc(C(C)=O)ccc43)[nH]c2c(OC)c1OC (stereo not shown) [Compound 11]    >25 µM
COc1cc2cc(C(=O)N3CC(CCl)c4c3cc([N+](=O)[O-])c3cc([N+](=O)[O-])ccc43)[nH]c2c(OC)c1OC (stereo not shown) [Compound 8]    >25 µM

Prompt line: Tell me the measured Clonogenic C10 HT29 Oxic of CN(C)CCOc1ccc2[nH]c(C(=O)N3CC(CCl)c4c3cc([N+](=O)[O-])c3cc(C(N)=O)ccc43)cc2c1 (stereo not shown) [Compound 16] , please.
Response line: >25 µM

====

system: HT29: human colon cancer cell line; experiment: Proliferation IC50 assay, oxic/hypoxic, HT29; format: cell-based; conditions: Table 3; IC50(aerobic)/IC10(hypoxic)
API: label(entry) gives yes (1) if the entry's HCR (hypoxic cytotoxicity ratio) HT29 is strictly smaller than 2; on equality or larger values it gives no (0).

These recorded examples may help you get a feel for the data.
CN(C)CCOc1ccc2[nH]c(C(=O)N3CC(CCl)c4c3cc([N+](=O)[O-])c3c(C(N)=O)cccc43)cc2c1 (centres unmarked) [Compound 5]    no (0)
CN(C)CCOc1ccc2[nH]c(C(=O)N3CC(CCl)c4c3cc([N+](=O)[O-])c3cc(S(N)(=O)=O)ccc43)cc2c1 (centres unmarked) [Compound 26]    no (0)
CN(C)CCOc1ccc2[nH]c(C(=O)N3CC(CCl)c4c3cc([N+](=O)[O-])c3cc(S(=O)(=O)NCCO)ccc43)cc2c1 (centres unmarked) [Compound 35]    no (0)
CN(C)CCOc1ccc2[nH]c(C(=O)N3CC(CCl)c4c3cc([N+](=O)[O-])c3cc(S(=O)(=O)N(C)C)ccc43)cc2c1 (centres unmarked) [Compound 38]    no (0)

Prompt line: Quick check: HCR (hypoxic cytotoxicity ratio) HT29 of COc1cc2cc(C(=O)N3CC(CCl)c4c3cc([N+](=O)[O-])c3cc(C(=O)NCCO)ccc43)[nH]c2c(OC)c1OC (centres unmarked) [Compound 17] under 2?
Response line: yes (1)

====

system: HT29: human colon cancer cell line; assay: Proliferation IC50 assay, oxic/hypoxic, HT29; format: cell-based; conditions: Table 3; IC50(aerobic)/IC10(hypoxic)
API: label(entry) gives condition met if the entry's HCR (hypoxic cytotoxicity ratio) HT29 is strictly smaller than 2; on equality or larger values it gives condition not met.

These recorded examples may help you get a feel for the data.
CN(C)CCOc1ccc2[nH]c(C(=O)N3CCc4c3cc([N+](=O)[O-])c3c(S(N)(=O)=O)c(CCl)ccc43)cc2c1    condition not met
COc1cc2cc(C(=O)N3CC(CCl)c4c3cc([N+](=O)[O-])c3cccc([N+](=O)[O-])c43)[nH]c2c(OC)c1OC (stereo not shown)    condition met
COC(=O)c1ccc2c3c(cc([N+](=O)[O-])c2c1)N(C(=O)c1cc2cc(OCCN(C)C)ccc2[nH]1)CC3CCl (stereo not shown)    condition met
CN(C)CCOc1ccc2[nH]c(C(=O)N3CC(CCl)c4c3cc([N+](=O)[O-])c3cc([N+](=O)[O-])ccc43)cc2c1 (stereo not shown)    condition not met
CN(C)CCOc1ccc2[nH]c(C(=O)N3CC(CCl)c4c3cc([N+](=O)[O-])c3cc(N)ccc43)cc2c1 (stereo not shown)    condition not met

Prompt line: Quick check: HCR (hypoxic cytotoxicity ratio) HT29 of COC(=O)c1ccc2c([N+](=O)[O-])cc3c(c2c1)C(CCl)CN3C(=O)c1cc2cc(OCCN(C)C)ccc2[nH]1 (stereo not shown) under 2?
Response line: condition met

Prompt line: Quick check: HCR (hypoxic cytotoxicity ratio) HT29 of COc1cc2cc(C(=O)N3CC(CCl)c4c3cc([N+](=O)[O-])c3ccc(S(N)(=O)=O)cc43)[nH]c2c(OC)c1OC (stereo not shown) under 2?
Response line: condition met

Prompt line: Quick check: HCR (hypoxic cytotoxicity ratio) HT29 of CN(C)CCOc1ccc2[nH]c(C(=O)N3CC(CCl)c4c3cc([N+](=O)[O-])c3ccc(C(N)=O)cc43)cc2c1 (stereo not shown) under 2?
Response line: condition not met

Prompt line: Quick check: HCR (hypoxic cytotoxicity ratio) HT29 of CC(=O)c1cccc2c3c(cc([N+](=O)[O-])c12)N(C(=O)c1cc2cc(OCCN(C)C)ccc2[nH]1)CC3CCl (stereo not shown) under 2?
Response line: condition not met

Prompt line: Quick check: HCR (hypoxic cytotoxicity ratio) HT29 of COc1cc2cc(C(=O)N3CC(CCl)c4c3cc([N+](=O)[O-])c3c([N+](=O)[O-])cccc43)[nH]c2c(OC)c1OC (stereo not shown) under 2?
Response line: condition met
